Each recorded value in this set is attributed to PubChem BioAssay (NCI).

- Test system: SK-MEL-5 melanoma
- assay.explanation: NCI tumour cell line growth inhibition, 48 h
measure.name: TGI

Look over these answered cases.
c1ccc2c(c1)OCCc1cn[nH]c1-2 ... > 100 µM
C[C@]12Cc3cnc(-c4ccccc4)nc3C[C@@H]1CC[C@@H]1[C@@H]2CC[C@@]2(C)[C@H]1CC[C@]2(C)O ... 42.9 µM
COc1ccc(/C=C2\C[C@H]3[C@@H]4CC=C5C[C@@H](OC(C)=O)CC[C@]5(C)[C@H]4CC[C@]3(C)\C2=N\O)cc1OC ... 9.83 µM

Attention now turns to another entry.
Exercise: API: value(readout= TGI, system= SK-MEL-5 melanoma, query= `Cc1csc(NNC(N)=O)n1` )
Solution: > 100 µM

###

TGI reference
- Tested on: NCI/ADR-RES ovarian
- assay.explanation: NCI tumour cell line growth inhibition, 48 h

Look over these answered cases.
C[C@@H]1[C@H](O)CC2=C(CC[C@@H](O)C2(C)C)[C@@]1(CO)CCc1ccoc1 ... > 50 µM
N#Cc1ccc(-c2c(-c3ncn[nH]3)sc(N3CCOCC3)c2C#N)c(F)c1 ... > 100 µM
CSc1nc(Nc2ccccc2Cl)c2c(N)nn(C)c2n1 ... > 100 µM
Cc1cccc(NC(=O)O/N=C(\Cl)C(C)C)c1 ... 38.4 µM

Attention now turns to another entry.
Exercise: API: value(readout= TGI, system= NCI/ADR-RES ovarian, query= `CCCN(CCC)C(=S)N/N=C(/C)c1ccccc1O` )
Solution: 5.57 µM

###

TGI reference
- Tested on: M19-MEL melanoma
- assay.explanation: NCI tumour cell line growth inhibition, 48 h

Look over these answered cases.
O=NN1C(c2ccccc2)C2CCCC(C2=O)C1c1ccccc1 (stereo unspecified) ... 37.1 µM
CCc1c2cc(OC)c(OC)cc2cc2c3cc(OC)c(OC)cc3cc[n+]12 (tested in a mixture with another compound) ... > 92.7 µM
O=c1c2ccccc2[nH]c2c(O)ccc(O)c12 ... 63.6 µM

Attention now turns to another entry.
Exercise: API: value(readout= TGI, system= M19-MEL melanoma, query= `COC(=O)c1cccc2c3ccccc3c3ccccc3c12` )
Solution: > 100 µM

###

- System: M14 melanoma
- assay.explanation: NCI tumour cell line growth inhibition, 48 h
GI50 reference

Look over these answered cases.
CCCCCCCCCCCCCCCCCCNCc1ccc(Cl)cc1 ... 2.28 µM
CCC1C(C)C=NN1c1nc(N)nc(C(C#N)=Nc2ccc(N(C)C)cc2)n1 (stereo unspecified) ... 9.11 µM
O=[N+]([O-])c1cccc(-c2nc(-c3ccc(Cl)cc3Cl)cn2-c2ccccc2)c1 ... 1.45 µM

Exercise: API: value(readout= GI50, system= M14 melanoma, query= N#CC1=C(N)NC(=S)NC1c1ccc(-c2ccc(-c3nc4ccccc4o3)cc2)s1 (stereo unspecified) )
Solution: 12.6 µM

Exercise: API: value(readout= GI50, system= M14 melanoma, query= `CCN(CC)c1c(-c2ccccc2)n[nH]c1C(=O)OC` )
Solution: 30.1 µM

Exercise: API: value(readout= GI50, system= M14 melanoma, query= `Cc1cc(C(=O)Nc2n[nH]c3ccccc23)n[nH]1` )
Solution: > 100 µM

Exercise: API: value(readout= GI50, system= M14 melanoma, query= `Cc1ccc(Nc2cc(Cl)c([N+](=O)[O-])cc2[N+](=O)[O-])cc1` )
Solution: 3.96 µM

Exercise: API: value(readout= GI50, system= M14 melanoma, query= CO[C@@H]1CCN(c2nccc(Nc3cc4c(C(C)C)ccc(N5CC(CS(C)(=O)=O)[C@H]5C)c4cn3)n2)C[C@@H]1F (stereo partly specified) )
Solution: 5.93 µM

Exercise: API: value(readout= GI50, system= M14 melanoma, query= `CN(C)C(=O)OCc1nc2c(N3CCOCC3)nc(-c3ccccc3)nc2n1C` )
Solution: 0.609 µM

Exercise: API: value(readout= GI50, system= M14 melanoma, query= Nc1c(C(=O)Nc2ccccn2)sc2nc3c(cc12)C(O)CCC3 (stereo unspecified) )
Solution: 0.949 µM

Exercise: API: value(readout= GI50, system= M14 melanoma, query= `CNCC/C=C1\c2cc3c(cc2-c2c1c1cc(OC)c(OC)cc1c(=O)n2C)OCO3` )
Solution: 0.621 µM
